The reported measurements were obtained from PubChem BioAssay (NCI).

Listed here are compounds together with their documented TGI.
Test system: RPMI-8226 leukemia
Assay: NCI tumour cell line growth inhibition, 48 h
observed.property: TGI

Cc1nn(-c2cc(Cl)ccc2[N+](=O)[O-])c(C)c1Cl | > 100 µM
CC(C)C(=O)NC(=S)Nc1ccc([N+](=O)[O-])cc1C#N | > 100 µM
CC(C)(C)C1C=C(Sc2ccccc2)C(=O)O1 (stereo not given) | > 100 µM
COc1cc(I)c2c3c1OC1C34CCN(C)C(C2)C4=CC(I)C1(OC)OC (stereo not given) | 49.7 µM
CCOC(=O)C(NC(=O)CC(C)C)(N1CCN(c2cc3c(cc2F)c(=O)c(C(=O)O)cn3C2CC2)CC1)C(F)(F)F (stereo not given) | 78.6 µM
NC(=O)C(=CNC(=S)c1ccncc1)C(N)=O | > 100 µM
O=C(/C(Br)=C/c1ccccc1)c1ccccc1 | 7.07 µM
CC(C)(C)C1CCC2(CC1)c1[nH]c3ccccc3c1C1(CCC(C(C)(C)C)CC1)c1[nH]c3ccccc3c12 (stereo not given) | > 100 µM
Cc1cn([C@@H]2C[C@H]2CO)c(=O)[nH]c1=O | > 100 µM
CCOC(=O)C(CC#Cc1ccc(C#CCC(NC(C)=O)C(=O)OCC)cc1)NC(C)=O (stereo not given) | > 100 µM

* * *

Examples of compounds with documented TGI follow.
System: IGROV1 ovarian
Test: NCI tumour cell line growth inhibition, 48 h
observed.property: TGI

CNC(=O)N(CCC#N)[C@H]1CCCC[C@@H]1N(C(=O)NC)c1ccccc1 | > 100 µM
N#Cc1cc([N+](=O)[O-])ccc1NC(=O)C(=O)Nc1n[nH]c(N)n1 | > 100 µM
O=C(O)C(CS)N=c1c2ccccc2n(O)c2ccccc12 (stereo not given) | > 100 µM
COc1ccc(/C=C/c2nccc3ccccc23)cc1OC | > 10 µM
Clc1ccc(OCc2nnc(CCCCCCCCc3nnc(COc4ccc(Cl)cc4)n3Nc3ccccc3)n2Nc2ccccc2)cc1 | > 100 µM
OCC(O)CC[CH2][Sn]([Br])([c]1ccccc1)[c]1ccccc1 (stereo not given) | > 100 µM
NC1CNC(=O)c2c(Cl)sc(Cl)c21 (stereo not given) | > 100 µM
CC1(C(=O)O)CCCC1C(=O)O (stereo not given) | > 100 µM
COC(=O)C1CC2(c3ccccc3)C(=O)c3ccccc3N2O1 (stereo not given) | > 100 µM
O=C(N/N=C/c1ccccc1O)c1ccccc1Nc1ccnc(C(F)(F)F)c1 | 0.0883 µM
Oc1c(CN2CCC(N3CCCCC3)CC2)cc(Cc2cc(CN3CCC(N4CCCCC4)CC3)c(O)c3ncccc23)c2cccnc12 | 17.3 µM
COc1ccc(-c2c(C#N)c(N)nc3c2CCS(=O)(=O)c2ccccc2-3)cc1 | > 100 µM
COC(=O)c1c/c(=N\NC(=O)CC(=O)Nc2ccccc2OC)c2ccccc2o1 | > 100 µM
CCOC(=O)[C]1([Bi]([CH3])[CH3])N=NC(C(=O)OC)=C1C(=O)OC (stereo not given) | 51.9 µM
O=C(O)C(CO)NC(=O)n1c2ccccc2c2ccccc21 (stereo not given) | > 100 µM
C=C1C(=O)O[C@@]23C1CC[C@@H](C)C2CC[C@@]1(C)OC31 (stereo not given in full) | 32.3 µM
CN1CCN(C(=O)OCc2nc3c(N4CCOCC4)nc(Cl)nc3n2C)CC1 | 2.57 µM
CC(=O)OC/C=C(/C=C/CNC1CCCCC1)OC(C)=O | 34.3 µM
O=c1/c(=C/c2ccco2)sc2nc3ccccc3n12 | > 100 µM
O=C(CC1=NCCN1)c1ccccc1 | > 750 µM
CC(=O)OCCN1c2ccccc2Sc2cnccc21 | > 10 µM
COc1ccc(-c2cnnc3c(-c4cccc(C(F)(F)F)c4)cnn23)cc1 | > 100 µM
CCNC(=O)C1CCCN1C(=O)C(CCCN=C(N)N)NC(=O)C(CC(C)C)NC(=O)C(Cc1c[nH]c2ccccc12)NC(=O)C(Cc1ccc(O)cc1)NC(=O)C(CO)NC(=O)C(Cc1c[nH]c2ccccc12)NC(=O)C(Cc1cnc[nH]1)NC(=O)C1CCC(=O)N1 (stereo not given) | > 100 µM
COC(=O)C1=Nc2c(C)nn(-c3ccccc3)c2N=C(c2ccc([N+](=O)[O-])cc2)C1 | > 10 µM
Cc1cn([C@@H]2C[C@H]2CO)c(=O)[nH]c1=O | > 100 µM
CCC(C)C(=O)OC1CC2(C)C(c3ccoc3)OC(=O)CC23OC2(C)OC34C(OC(=O)C(C)C)C3(O)C(OC(=O)C5(C)OC5C)C5(C)CC3(O)C(C)(C5CC(=O)OC)C14O2 (stereo not given) | > 100 µM
N#Cc1ccc(NC(=O)Nc2ccc(Oc3ccc(NC(=O)Nc4ccc(C#N)cc4)cc3)cc2)cc1 | > 100 µM
O=C1C=CC(=O)c2c(O)c(NCCc3ccc(O)cc3)c(Cl)c(O)c21 | > 10 µM
C/C(CC(=O)Nc1ccc(C)cc1C)=N/N=C(N)N | > 100 µM
C=C1C(=O)O[C@H]2[C@H]1CC/C(COC(=O)c1ccc3ccccc3c1)=C\CC[C@@]1(C)O[C@@H]21 | 2.19 µM
O=C1CCC(=O)N2CCCCN12 | > 100 µM
COC(=O)Cc1c([C@H]2[C@H](CC(=O)OC)c3ccccc3N2C(C)=O)[nH]c2ccccc12 | > 100 µM
O=C(N/N=C/c1cc(Br)cc(Br)c1[O-])c1ccccc1O.O=C(N/N=C/c1cc(Br)cc(Br)c1[O-])c1ccccc1O.[Fe+2] | 41.4 µM
O=C(O)CNS(=O)(=O)c1ccc(NCc2ccccc2)cc1 | > 100 µM
c1ccc2c3c(c(N4CCOCC4)nc2c1)CCCC3 | > 100 µM

* * *

Collected GI50 values appear next to each entry.
Tested on: OVCAR-5 ovarian
Assay: NCI tumour cell line growth inhibition, 48 h
observed.property: GI50

FC(F)(F)c1cccc(Nc2nccc(-c3cnn4nc(-c5ccccc5)ccc34)n2)c1 | > 22.9 µM
N#Cc1ccc(NC(=O)Nc2ccc(Oc3ccc(NC(=O)Nc4ccc(C#N)cc4)cc3)cc2)cc1 | 26.1 µM
OCC(O)CC[CH2][Sn]([Br])([c]1ccccc1)[c]1ccccc1 (stereo not drawn) | > 100 µM
CCC[CH2][Sn]1([CH2]CCC)[O]Cc2nc(C)ccc2[O]1 | 12.3 µM
CC(C)(C)OC(=O)N1CCc2c(sc3ncnc(N/N=C/c4cccc5ccccc45)c23)C1 | 4.71 µM
C=CC(=O)N1CC2(CCN(c3nc(OC4CCN(CCCOC)CC4)nc4c(OCC(F)(F)F)c(-c5c(C)ccc6[nH]ncc56)c(C5CC5)cc34)CC2)C1 | 5.31 µM
Oc1ccc(CN2CCC(N3CCCCC3)CC2)c2cccnc12 | 45.4 µM
COc1ccc(-c2cnnc3c(-c4cccc(C(F)(F)F)c4)cnn23)cc1 | > 100 µM

* * *

Tested on: LOX IMVI melanoma
Assay: NCI tumour cell line growth inhibition, 48 h
Reported GI50 values are given for each entry in this list.
observed.property: GI50

C=C1C(=O)O[C@H]2[C@H]1CC/C(Cn1cc(-c3ccc(OC)cc3)nn1)=C\CC[C@@]1(C)O[C@@H]21 | 1160 nM
Nc1cc(N)c2nc(-c3ccccc3)c(Nc3ccc(Cl)c(Cl)c3)nc2c1 | 4380 nM
COc1cc(C2=NOC(c3cc(OC)c(OC)c(OC)c3)C2)ccc1OCCCCOc1cc2c(cc1OC)C(=O)N1CCC[C@H]1C=N2 (some centres undefined) | 215 nM
Oc1ccc(NCc2nc3ccccc3[nH]2)cc1 | 73900 nM

* * *

Tested on: HT29 colon
Test: NCI tumour cell line growth inhibition, 48 h; in the data active = GI50 below about 0.43 µM; inactive = the rest
Classes used: active, inactive

C=CC(=O)N1CC2(CCN(c3nc(OC4CCN(CCCOC)CC4)nc4c(OCC(F)(F)F)c(-c5c(C)ccc6[nH]ncc56)c(C5CC5)cc34)CC2)C1 | inactive
CC(C)c1nc(CN(C)C(=O)N[C@H](C(=O)N[C@@H](Cc2ccccc2)C[C@H](O)[C@H](Cc2ccccc2)NC(=O)OCc2cncs2)C(C)C)cs1 | inactive
N#Cc1ccc(O)c(C2=NCC(c3cccc(Oc4ccccc4)c3)O2)c1 (centres undefined) | inactive
O=C1Nc2c(C(F)(F)F)cccc2[C@]1(c1ccc(O)cc1)c1ccc(OC(F)(F)F)cc1 | inactive
CC[C@]1(O)C[C@@H]2CN(CCc3c([nH]c4ccccc34)[C@@](C(=O)OC)(c3cc4c(cc3OC)N(C)[C@H]3[C@@](O)(C(=O)OC)[C@H](OC(C)=O)[C@]5(CC)C=CCN6CC[C@]43[C@@H]65)C2)C1 | active
CCOC(=O)[C]1([Bi]([CH3])[CH3])N=NC(C(=O)OC)=C1C(=O)OC (centres undefined) | inactive
CCC[CH2][Sn]([CH2]CCC)([O]C(=O)c1cccnc1SC)[O]C(=O)c1cccnc1SC | inactive
O=c1/c(=C/c2ccco2)sc2nc3ccccc3n12 | inactive
COc1cc(C2NC(=O)c3ccccc3N2)ccc1OCCCCCOc1c(OC)cc(C2=NOC(c3cc(OC)c(OC)c(OC)c3)C2)cc1OC (centres undefined) | inactive
